Target: PI3K-gamma (Homo sapiens, UniProt P48736)
Sequence (P48736 whole entry, species assumed): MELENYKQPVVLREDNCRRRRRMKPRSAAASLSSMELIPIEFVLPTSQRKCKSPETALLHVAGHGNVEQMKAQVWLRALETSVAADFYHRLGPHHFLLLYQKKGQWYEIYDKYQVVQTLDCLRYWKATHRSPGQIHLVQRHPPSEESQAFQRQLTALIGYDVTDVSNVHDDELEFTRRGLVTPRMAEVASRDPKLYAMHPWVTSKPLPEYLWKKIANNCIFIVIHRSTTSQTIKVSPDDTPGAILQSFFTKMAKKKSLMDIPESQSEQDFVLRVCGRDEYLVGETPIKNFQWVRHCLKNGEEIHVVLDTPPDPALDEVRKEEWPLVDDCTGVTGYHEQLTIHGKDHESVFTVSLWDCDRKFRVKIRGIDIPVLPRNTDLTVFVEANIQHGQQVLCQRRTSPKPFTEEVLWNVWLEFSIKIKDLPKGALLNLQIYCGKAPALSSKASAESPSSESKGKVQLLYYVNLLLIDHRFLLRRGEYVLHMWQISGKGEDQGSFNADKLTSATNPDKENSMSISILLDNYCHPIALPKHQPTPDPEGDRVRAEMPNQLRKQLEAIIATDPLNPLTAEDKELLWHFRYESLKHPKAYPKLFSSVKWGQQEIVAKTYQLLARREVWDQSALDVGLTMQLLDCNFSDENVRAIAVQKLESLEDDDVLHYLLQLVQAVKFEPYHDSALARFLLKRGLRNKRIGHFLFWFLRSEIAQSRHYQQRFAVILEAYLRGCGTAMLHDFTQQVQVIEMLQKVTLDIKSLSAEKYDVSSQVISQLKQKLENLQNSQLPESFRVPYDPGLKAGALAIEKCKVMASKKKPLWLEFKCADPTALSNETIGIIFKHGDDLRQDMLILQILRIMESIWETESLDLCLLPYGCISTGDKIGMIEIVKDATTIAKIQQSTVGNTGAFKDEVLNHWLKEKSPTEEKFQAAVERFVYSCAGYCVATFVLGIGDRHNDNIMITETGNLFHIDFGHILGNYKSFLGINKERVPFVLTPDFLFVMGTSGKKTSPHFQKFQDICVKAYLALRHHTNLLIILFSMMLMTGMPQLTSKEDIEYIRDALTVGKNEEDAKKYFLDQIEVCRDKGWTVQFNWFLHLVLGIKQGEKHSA
Experiment: PI3K-gamma fluorescence polarization assay
Type: biochemical
Conditions: PI3Kγ Avg. IC50
parameter measured: IC50 (µM)

| molecule | system under test | lt gt eq | meas value |
| --- | --- | --- | --- |
| COc1ccc2[nH]cc(C=C3Oc4cc(SC)ccc4C3=O)c2c1 [Example 434] | PI3K-gamma (Homo sapiens, UniProt P48736) | > | 10 |
| CN(C)CCCn1c(-c2ccccc2)c(C=C2Oc3cc(O)cc(O)c3C2=O)c2ccccc21 [Example 156] | PI3K-gamma (Homo sapiens, UniProt P48736) | = | 6 |
| CNC(=O)Nc1ccc2c(c1)C(=O)/C(=C/c1c[nH]c3c(/C=C/CN4CCN(C)CC4)cc(OC)cc13)O2 [Compound 594] | PI3K-gamma (Homo sapiens, UniProt P48736) | = | 2.2 |
| COc1ccc2c(c1)c(/C=C1\Oc3cc(O)cc(O)c3C1=O)cn2CCCC#N [Compound 510] | PI3K-gamma (Homo sapiens, UniProt P48736) | = | 0.056 |
| CCNC(=O)Nc1ccc2c(c1)C(=O)/C(=C/c1c[nH]c3ccc(OC)cc13)O2 [Compound 489] | PI3K-gamma (Homo sapiens, UniProt P48736) | > | 10 |
| CNC(=O)Nc1ccc2c(c1)C(=O)/C(=C/c1c(-c3c(C)nn(C)c3C)n(CCN3CCN(C)CC3)c3ccc(OC)cc13)O2 [Compound 646] | PI3K-gamma (Homo sapiens, UniProt P48736) | = | 0.068 |
| O=C1C(=Cc2c(-c3cccnc3)[nH]c3ccccc23)Oc2cc(O)cc(O)c21 [Example 202] | PI3K-gamma (Homo sapiens, UniProt P48736) | = | 7 |
| N#CCCCn1cc(C=C2Oc3cc(O)cc(O)c3C2=O)c2c(Br)cccc21 [Example 230] | PI3K-gamma (Homo sapiens, UniProt P48736) | > | 10 |

---

Molecular target: PI3K-delta (Homo sapiens, UniProt O00329)
Sequence (O00329 whole entry, species assumed): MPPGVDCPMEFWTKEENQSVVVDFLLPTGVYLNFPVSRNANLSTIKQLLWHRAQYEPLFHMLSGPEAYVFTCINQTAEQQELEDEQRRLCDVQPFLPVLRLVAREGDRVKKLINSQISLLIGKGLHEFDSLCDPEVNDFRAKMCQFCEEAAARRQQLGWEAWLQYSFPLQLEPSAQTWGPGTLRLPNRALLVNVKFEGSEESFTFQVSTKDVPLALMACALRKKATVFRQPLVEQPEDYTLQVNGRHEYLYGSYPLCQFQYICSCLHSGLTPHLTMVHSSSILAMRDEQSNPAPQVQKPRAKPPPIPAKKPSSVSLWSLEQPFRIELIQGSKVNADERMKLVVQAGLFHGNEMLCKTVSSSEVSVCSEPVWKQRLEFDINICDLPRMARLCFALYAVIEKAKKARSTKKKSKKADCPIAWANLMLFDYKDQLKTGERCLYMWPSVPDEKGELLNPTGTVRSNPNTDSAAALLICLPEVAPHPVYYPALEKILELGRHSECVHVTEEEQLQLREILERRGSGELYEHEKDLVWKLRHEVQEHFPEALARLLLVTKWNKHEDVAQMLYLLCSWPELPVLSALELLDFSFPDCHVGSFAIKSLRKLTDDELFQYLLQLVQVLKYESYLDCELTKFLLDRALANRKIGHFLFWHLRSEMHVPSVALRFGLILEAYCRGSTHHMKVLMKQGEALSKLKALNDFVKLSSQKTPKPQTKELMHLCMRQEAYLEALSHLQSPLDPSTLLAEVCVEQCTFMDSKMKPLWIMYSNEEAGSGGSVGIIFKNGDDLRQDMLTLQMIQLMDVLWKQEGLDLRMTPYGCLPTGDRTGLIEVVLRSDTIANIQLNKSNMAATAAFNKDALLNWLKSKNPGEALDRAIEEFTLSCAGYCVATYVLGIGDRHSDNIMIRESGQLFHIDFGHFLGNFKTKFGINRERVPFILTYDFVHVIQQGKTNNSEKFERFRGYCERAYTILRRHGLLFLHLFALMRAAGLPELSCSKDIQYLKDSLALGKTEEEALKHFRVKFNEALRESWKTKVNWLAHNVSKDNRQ
Sequence (P27986 whole entry partner, species assumed): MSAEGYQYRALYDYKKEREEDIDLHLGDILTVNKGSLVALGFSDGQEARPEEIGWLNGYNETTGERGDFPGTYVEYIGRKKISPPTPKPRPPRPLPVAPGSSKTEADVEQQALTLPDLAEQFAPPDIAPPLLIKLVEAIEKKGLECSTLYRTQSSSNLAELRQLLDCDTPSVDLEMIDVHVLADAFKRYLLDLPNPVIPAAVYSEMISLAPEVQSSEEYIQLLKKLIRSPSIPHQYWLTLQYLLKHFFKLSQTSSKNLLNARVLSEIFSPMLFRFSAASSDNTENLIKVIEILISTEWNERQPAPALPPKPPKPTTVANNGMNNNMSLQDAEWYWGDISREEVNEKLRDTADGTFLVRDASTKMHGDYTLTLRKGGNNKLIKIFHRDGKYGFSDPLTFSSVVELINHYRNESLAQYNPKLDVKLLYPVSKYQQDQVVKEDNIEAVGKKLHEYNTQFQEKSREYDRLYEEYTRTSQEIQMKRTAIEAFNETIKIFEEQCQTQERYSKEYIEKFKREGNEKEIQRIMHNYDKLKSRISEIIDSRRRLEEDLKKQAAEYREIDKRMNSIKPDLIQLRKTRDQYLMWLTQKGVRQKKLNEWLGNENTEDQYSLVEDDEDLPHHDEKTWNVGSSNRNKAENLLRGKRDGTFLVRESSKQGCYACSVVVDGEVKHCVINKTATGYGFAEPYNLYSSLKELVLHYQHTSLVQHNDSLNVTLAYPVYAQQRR
Assay: PI3K-delta fluorescence polarization assay
Assay type: biochemical
Details: read-out: PI3Kδ Avg. IC50
pIC50: −log10 of the molar value.
parameter measured: pIC50

| mol smiles | meas value |
| --- | --- |
| COc1ccc2c(c1)c(/C=C1\Oc3cc(O)ccc3C1=O)c(C(=O)N(C)C)n2CCCN(C)C | 8.70 |
| COc1ccc2c(c1)c(C=C1Oc3cc(O)cc(O)c3C1=O)cn2CCN1CCN(CCO)CC1 | 7.67 |
| COc1ccc2c(c1)c(/C=C1\Oc3cc(O)cc(C)c3C1=O)c(C)n2CCN1CCN(C)CC1 | 8.52 |
| COc1ccc2c(c1)c(/C=C1\Oc3cc(O)cc(O)c3C1=O)cn2CC(=O)N(C)C | 7.57 |

---

Molecular target: human TOR (Homo sapiens)
Construct: FLAG
Assay: mTOR enzyme assay (DELFIA, His6-S6K substrate)
Type: biochemical
Conditions: read-out: mTOR Kinase Avg. IC50
pIC50: −log10 of the molar value.
parameter measured: pIC50

| compound | lt gt eq | meas value |
| --- | --- | --- |
| COc1ccc2[nH]cc(C=C3Oc4cc(S(C)(=O)=O)ccc4C3=O)c2c1 [Example 436] | < | 4.70 |
| O=C1C(=Cc2c[nH]c3ccc(F)cc23)Oc2cc(O)cc(O)c21 [Example 175] | = | 5.05 |
| CNC(=O)c1ccc(-c2cccc3c2c(/C=C2\Oc4cc(O)cc(O)c4C2=O)cn3C)cc1 [Example 392] | = | 7.77 |
| Cn1cc(/C=C2\Oc3cc(O)cc(O)c3C2=O)c2c(-c3ccc(O)cc3)cccc21 [Example 379] | = | 7.54 |
| COc1ccc2c(c1)c(/C=C1\Oc3cc(O)cc(O)c3C1=O)cn2CC(=O)N(C)C [Example 318] | = | 6.60 |
| COc1ccc2c(c1)c(/C=C1\Oc3cc(O)ccc3C1=O)c(C)n2CCCN1CCCC1 [Example 356] | < | 6.10 |
| COc1ccc2c(c1)c(/C=C1\Oc3ccc(NC(=O)Nc4ccc(N(C)C)cc4)cc3C1=O)c(C)n2CCN1CCN(C)CC1 [Compound 633] | = | 6.65 |
| COc1ccc2c(c1)c(/C=C1\Oc3cc(O)cc(O)c3C1=O)c(C(=O)N(C)C)n2CCn1ccnc1 [Example 314] | = | 6.81 |

Data origin, for the record: patent US20090311217A1
